Biological target: HLA-A*03:01
Assay: IEDB peptide-MHC binding, purified MHC/direct/fluorescence; filed as Kd, often an IC50 or EC50 that approximates it; bounds were set here for any values at or beyond the usual limits of such assays
Settings: source organism: Brucella melitensis bv. 1 str. 16M
METRIC NAME: Kd

Could you share which Kd value was measured for TTRAVNMEV ? ≥ 20 µM

###

Below, each entry is listed with its recorded pKd.
Target: HLA-B*44:03
Test: IEDB peptide-MHC binding, purified MHC/competitive/radioactivity; filed as Kd, often an IC50 or EC50 that approximates it; bounds were set here for any values at or beyond the usual limits of such assays
Settings: source organism: Dengue virus 1 Brazil/97-11/1997
Reminder that pKd means the negative base-10 logarithm of the concentration expressed in mol/L.

Could you share which pKd value was measured for NEVHTWTEQY ? 6.86

Please do the same for WEGSPGKFW as well. 7.27

###

Target: HLA-B*40:13
Experiment: IEDB peptide-MHC binding, purified MHC/competitive/fluorescence; filed as Kd, often an IC50 or EC50 that approximates it; bounds were set here for any values at or beyond the usual limits of such assays
Conditions: source organism: Methylibium petroleiphilum PM1
METRIC NAME: Kd
Field note: include the unit after the figure.

Could you share which Kd value was measured for FQMGGIGPM ? 8.8 nM

###

Target: HLA-B*54:01
Assay: IEDB peptide-MHC binding, purified MHC/competitive/radioactivity; filed as Kd, often an IC50 or EC50 that approximates it; bounds were set here for any values at or beyond the usual limits of such assays
Conditions: source organism: SARS coronavirus Tor2
METRIC NAME: pKd
Reminder that pKd means the negative base-10 logarithm of the concentration expressed in mol/L.

Examples with answers:
MONOMER SEQUENCE: RPPLNRNYV
pKd: 6.18

MONOMER SEQUENCE: NPIQLSSYSL
pKd: 5.75

Please turn your attention to the following entry.
Could you share which pKd value was measured for APAHVSTIGV ? 5.51

###

Target: HLA-B*18:01
Assay: IEDB peptide-MHC binding, purified MHC/direct/fluorescence; filed as Kd, often an IC50 or EC50 that approximates it; bounds were set here for any values at or beyond the usual limits of such assays
Details: source organism: Vibrio cholerae
METRIC NAME: Kd

What measured Kd is associated with RVHGATVFK on HLA-B*18:01? ≥ 20 µM

###

Molecular target: HLA-B*27:03
Assay: IEDB peptide-MHC binding, purified MHC/direct/fluorescence; filed as Kd, often an IC50 or EC50 that approximates it; bounds were set here for any values at or beyond the usual limits of such assays
Conditions: source organism: Burkholderia mallei ATCC 23344
METRIC NAME: Kd

What measured Kd is associated with QHAWPLPPL on HLA-B*27:03? ≥ 20 µM

###

Target: HLA-A*01:01
Assay: IEDB peptide-MHC binding, purified MHC/direct/fluorescence; filed as Kd, often an IC50 or EC50 that approximates it; bounds were set here for any values at or beyond the usual limits of such assays
Conditions: source organism: Yersinia pestis Antiqua
METRIC NAME: Kd

What measured Kd is associated with FQLYSDLAH on HLA-A*01:01? ≥ 20 µM

###

Biological target: HLA-A*24:03
Experiment: IEDB peptide-MHC binding, purified MHC/direct/fluorescence; filed as Kd, often an IC50 or EC50 that approximates it; bounds were set here for any values at or beyond the usual limits of such assays
Conditions: source organism: Brucella melitensis bv. 1 str. 16M
METRIC NAME: Kd

What measured Kd is associated with TTRAVNMEV on HLA-A*24:03? ≥ 20 µM
